run-description: Solubility at pH2 and pH6
Format: physicochemical
settings: pH 2, simulated gastric fluid, pH2; read-out: Solubility μg/ml pH2
Collected solubility values appear next to each entry.
readout: solubility

• CNc1nc(OC)c(NC(=O)c2ccc(Cc3cc4c(cc3C)C(C)(C)CCC4(C)C)o2)c(OC)n1 = 1.2 µg/mL
• COc1nc(NCCN2CCCC2)nc(OC)c1NC(=O)c1ccc(Cc2cc3c(cc2C)C(C)(C)OC3(C)C)o1 = > 30 µg/mL
• COc1nc(OC)c(NC(=O)c2ccc(Cc3cc4c(cc3C)C(C)(C)OC4(C)C)o2)c(OC)n1 = > 12 µg/mL
• COc1nc(NCCNCCN)nc(OC)c1NC(=O)c1ccc(Cc2cc3c(cc2C)C(C)(C)OC3(C)C)o1 = > 30 µg/mL

====

target-system: human GnRH receptors (Homo sapiens, UniProt P30968)
Construct: expressed in transfected cells; host or cells: HEK 293 cells, stably transfected; membranes
Sequence (P30968 whole entry): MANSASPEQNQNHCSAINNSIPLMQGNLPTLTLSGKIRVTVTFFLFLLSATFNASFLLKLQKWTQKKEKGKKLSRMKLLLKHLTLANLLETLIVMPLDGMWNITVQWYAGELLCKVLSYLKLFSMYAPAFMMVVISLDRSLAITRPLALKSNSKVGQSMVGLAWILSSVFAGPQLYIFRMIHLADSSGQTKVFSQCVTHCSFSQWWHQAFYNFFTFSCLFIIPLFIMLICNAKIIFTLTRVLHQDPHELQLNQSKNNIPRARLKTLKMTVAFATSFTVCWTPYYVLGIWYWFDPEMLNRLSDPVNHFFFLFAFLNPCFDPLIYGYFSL
run-description: Radioligand binding: inhibition of 125I-GnRH-A binding to human GnRH receptor membranes
settings: HEK 293 cell membranes
Lab note - cut at 6 nM for Ki: fulfilled if strictly below, not fulfilled if not.

* COc1nc(NCCNCCN)nc(OC)c1NC(=O)c1ccc(Cc2cc3c(cc2C)C(C)(C)OC3(C)C)o1 | fulfilled
* COc1nc(N(C)Cc2cccnc2)nc(OC)c1NC(=O)c1ccc(Cc2cc3c(cc2C)C(C)(C)OC3(C)C)o1 | not fulfilled
* COc1nc(NCc2ccc(C(F)(F)F)nc2)nc(OC)c1NC(=O)c1ccc(Cc2cc3c(cc2C)C(C)(C)OC3(C)C)o1 | not fulfilled
* COc1nc(NCCCN(C)C)nc(OC)c1NC(=O)c1ccc(Cc2c(C)cc3c(c2C)C(C)(C)CCO3)o1 | not fulfilled
* COc1nc(NCC2(O)CCN(C)CC2)nc(OC)c1NC(=O)c1ccc(Cc2cc3c(cc2C)C(C)(C)OC3(C)C)o1 [Example D56, Acetate] | not fulfilled
* COc1nc(N2CCN(Cc3ccncc3)CC2)nc(OC)c1NC(=O)c1ccc(Cc2cc3c(cc2C)C(C)(C)OC3(C)C)o1 | not fulfilled
* COc1nc(N2CCN(c3ccc(Cl)cc3)CC2)nc(OC)c1NC(=O)c1ccc(Cc2cc3c(cc2C)C(C)(C)OC3(C)C)o1 | not fulfilled
* COc1nc(NCCCN(C)C)nc(OC)c1NC(=O)c1ccc(Cc2cc3c(cc2C)C(C)(C)OC3(C)C)o1 | fulfilled
* COc1nc(N(CC(C)O)CC(C)O)nc(OC)c1NC(=O)c1ccc(Cc2cc3c(cc2C)C(C)(C)OC3(C)C)o1 (stereo not drawn) | fulfilled
* COc1nc(N(CCCN2CCCCC2)CCCN2CCCCC2)nc(OC)c1NC(=O)c1ccc(Cc2cc3c(cc2C)C(C)(C)OC3(C)C)o1 | fulfilled
* COc1nc(N[C@@H](CO)CSCc2ccccc2)nc(OC)c1NC(=O)c1ccc(Cc2cc3c(cc2C)C(C)(C)OC3(C)C)o1 | not fulfilled
* COc1nc(NCCCN2CCN(C)CC2)nc(OC)c1NC(=O)c1ccc(Cc2cc3c(cc2C)C(C)(C)OC3(C)C)o1 | fulfilled
* COc1nc(NCCN2CCNCC2)nc(OC)c1NC(=O)c1ccc(Cc2cc3c(cc2C)C(C)(C)OC3(C)C)o1 | fulfilled
* COc1nc(N[C@H](CO)Cc2c[nH]c3ccccc23)nc(OC)c1NC(=O)c1ccc(Cc2cc3c(cc2C)C(C)(C)OC3(C)C)o1 | not fulfilled
* COc1nc(NCCCN2CCCCC2)nc(OC)c1NC(=O)c1ccc(Cc2cc3c(cc2C)C(C)(C)OC3(C)C)o1 | fulfilled
* COc1nc(NCCCN2CCOCC2)nc(OC)c1NC(=O)c1ccc(Cc2cc3c(cc2Cl)C(C)(C)CCC3(C)C)o1 | fulfilled
* COc1nc(OCCO)nc(OC)c1NC(=O)c1ccc(Cc2cc3c(cc2C)C(C)(C)OC3(C)C)o1 | not fulfilled
* COc1nc(N2CCN(CCN)CC2)nc(OC)c1NC(=O)c1ccc(Cc2cc3c(cc2C)C(C)(C)OC3(C)C)o1 | fulfilled
* COc1nc(N(CCN(C)C)Cc2ccc(F)cc2)nc(OC)c1NC(=O)c1ccc(Cc2cc3c(cc2C)C(C)(C)OC3(C)C)o1 | not fulfilled
* COc1nc(NCCCN2CCOCC2)nc(OC)c1NC(=O)c1ccc(Cc2cc3c(cc2C)CCCC3(C)C)o1 | fulfilled

Entry source: patent US6833372B2
